Origin of measurements: patent US20210206877A1

molecular target: BACE1 ECD (as used in the enzyme activity assay) (UniProt P56817 22-457, limits assumed); assay: cell-based or functional assay
Sequence (P56817 22-457 limits assumed): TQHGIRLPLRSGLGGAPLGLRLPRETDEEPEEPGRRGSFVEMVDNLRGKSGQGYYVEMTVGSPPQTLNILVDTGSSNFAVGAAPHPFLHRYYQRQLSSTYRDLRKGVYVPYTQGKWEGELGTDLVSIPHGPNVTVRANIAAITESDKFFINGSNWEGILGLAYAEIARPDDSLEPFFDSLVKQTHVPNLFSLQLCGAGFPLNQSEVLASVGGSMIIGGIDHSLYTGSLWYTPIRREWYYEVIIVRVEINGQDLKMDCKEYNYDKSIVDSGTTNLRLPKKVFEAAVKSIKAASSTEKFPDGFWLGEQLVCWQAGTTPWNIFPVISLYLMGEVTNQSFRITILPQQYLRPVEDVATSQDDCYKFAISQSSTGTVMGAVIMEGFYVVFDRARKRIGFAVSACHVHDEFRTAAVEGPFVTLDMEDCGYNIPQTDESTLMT
Recorded EC50, HTRF long substrate assay by entry
ASSAY ENDPOINT: EC50, HTRF long substrate assay (nM)

1) 5880 (antibody, V domains shown) VH: EVQLLESGGGLVQPGGSLRLSCAASGFTFGSYAMTWVRQAPGKGLEWVSAISGSGISTPYADSVKGRFTISRDNSKNTLYLQMNSLRAEDTAVYYCAKGAGHGSYVKGWFDPWGQGTLVTVSS VL: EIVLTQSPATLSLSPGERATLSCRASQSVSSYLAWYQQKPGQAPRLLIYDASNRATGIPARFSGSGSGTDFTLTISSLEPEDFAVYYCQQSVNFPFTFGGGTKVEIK | 171
2) 5644 (antibody, V domains shown) VH: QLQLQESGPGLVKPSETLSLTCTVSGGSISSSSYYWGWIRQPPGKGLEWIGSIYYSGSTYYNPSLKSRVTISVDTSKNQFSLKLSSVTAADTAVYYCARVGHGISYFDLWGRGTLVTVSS VL: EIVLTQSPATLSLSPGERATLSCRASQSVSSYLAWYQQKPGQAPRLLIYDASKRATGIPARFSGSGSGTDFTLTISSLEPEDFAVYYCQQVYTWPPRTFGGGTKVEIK | 8.75
